# Test system: NCI-H2141;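 note: growth inhibition of human NCI-H2141 cells, read out with a cell viability assay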
# EXPERIMENTAL PROTOCOL: cells
# Type: functional, cell-based, Homo sapiens
# RECORDED CONDITIONS: Homo sapiens, NCI-H2141
# Description: SANGER: Inhibition of human NCI-H2141 cell growth in a cell viability assay.
pIC50: −log10 of the molar value.

COMPOUND | RELATION SYMBOL | pIC50
COc1ccc(N(C(=O)Oc2c(C)cccc2C)c2ccnc(Nc3ccc(N4CCN(C)CC4)cc3)n2)c(OC)c1 | < | 5.29
CCCCCCCCCCCC1=C(O)C(=O)C=C(O)C1=O [EMBELIN] | = | 4.57
CC(C)C[C@H](NC(=O)[C@H](Cc1ccccc1)NC(=O)c1cnccn1)B(O)O [BORTEZOMIB] | = | 8.39
Cc1ccc(NC(=O)c2ccc(CN3CCN(C)CC3)cc2)cc1Nc1nccc(-c2cccnc2)n1 [IMATINIB] | < | 5.70

====

# Tested on: MHH-NB-11;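 note: growth inhibition of human MHH-NB-11 cells, read out by a cell viability assay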
# EXPERIMENTAL PROTOCOL: cells
# Assay type: functional, cell-based, Homo sapiens
# RECORDED CONDITIONS: Homo sapiens, MHH-NB-11
# Description: SANGER: Inhibition of human MHH-NB-11 cell growth in a cell viability assay.
pIC50: −log10 of the molar value. Where a SMILES comes first, the peptide text is derived from it. The star is where a group is joined. Cbz = O=C(OCc1ccccc1)*
Listed here: items and their measured pIC50.

MOLECULE | pIC50
CC1=C(/C=C/C(C)=C/C=C/C(C)=C/C(=O)O)C(C)(C)CCC1 | < 5.00
NC(=O)c1cccc(-c2cc(Nc3ccc(OC(F)(F)F)cc3)ncn2)c1 | < 5.89
CCCCCCCCCCCC1=C(O)C(=O)C=C(O)C1=O | < 4.49
O=S(=O)(O)c1ccc2cc(/N=N/c3cc(S(=O)(=O)O)c4cccnc4c3O)ccc2c1 | < 4.80
CC(C)C[C@H](NC(=O)[C@H](Cc1ccccc1)NC(=O)c1cnccn1)B(O)O | 8.31
COc1ccc(-c2cc3nccn3c(Nc3ncccc3C(N)=O)n2)cc1OC | < 5.10
CN(C)CCOc1ccc(-c2nc(-c3ccncc3)c(-c3ccc4c(c3)CC/C4=N\O)[nH]2)cc1 | < 5.30
CC(C)C[C@@H](C=O)NC(=O)[C@H](CC(C)C)NC(=O)[C@H](CC(C)C)NC(=O)OCc1ccccc1 [MG-132] (Cbz-Leu-Leu-Leu-aldehyde) | < 6.00
NC1(c2ccc(-c3nc4ccn5c(=O)[nH]nc5c4cc3-c3ccccc3)cc2)CCC1 | < 5.40
CN(NC(=O)CC(=O)NN(C)C(=S)c1ccccc1)C(=S)c1ccccc1 | 7.16

====

# Test system: SK-MEL-24
# EXPERIMENTAL PROTOCOL: cells
# Type: functional, cell-based
# RECORDED CONDITIONS: Homo sapiens
# Description: SANGER: Inhibition of human SK-MEL-24 cell growth in a cell viability assay.
IC50 reference

SMILES STRING | ASSAY TARGET | IC50
COc1ccc(-c2cc3nccn3c(Nc3ncccc3C(N)=O)n2)cc1OC | SK-MEL-24 | > 8000 nM
CC1(C)CCC(c2ccc(Cl)cc2)=C(CN2CCN(c3ccc(C(=O)NS(=O)(=O)c4ccc(N[C@H](CCN5CCOCC5)CSc5ccccc5)c(S(=O)(=O)C(F)(F)F)c4)cc3)CC2)C1 | SK-MEL-24 | > 2000 nM
NC(=O)Nc1cc(-c2cccc(F)c2)sc1C(=O)N[C@H]1CCCNC1 | SK-MEL-24 | > 2000 nM
NC(=O)c1ccc(N(C(N)=O)c2c(F)cccc2F)nc1-c1ccc(F)cc1F | SK-MEL-24 | > 2000 nM

====

// IC50 lookup, one value per entry
# System: KYSE-150 cell line
# EXPERIMENTAL PROTOCOL: cells
# Assay type: functional, cell-based
# RECORDED CONDITIONS: Homo sapiens
# Description: SANGER: Inhibition of human KYSE-150 cell growth in a cell viability assay.

SMILES STRING | IC50
NC(=O)Nc1cc(-c2cccc(F)c2)sc1C(=O)N[C@H]1CCCNC1 | > 2 µM
CC1(C)CCC(c2ccc(Cl)cc2)=C(CN2CCN(c3ccc(C(=O)NS(=O)(=O)c4ccc(N[C@H](CCN5CCOCC5)CSc5ccccc5)c(S(=O)(=O)C(F)(F)F)c4)cc3)CC2)C1 | > 2 µM

====

# Test system: Daoy;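 note: daoy cell growth inhibition, read out as cell viability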
# EXPERIMENTAL PROTOCOL: cells
# Assay type: functional, cell-based
# RECORDED CONDITIONS: Homo sapiens
# Description: SANGER: Inhibition of human Daoy cell growth in a cell viability assay.
// values below are reported IC50

COMPOUND | IC50
CC1=C(/C=C/C(C)=C/C=C/C(C)=C/C(=O)O)C(C)(C)CCC1 [TRETINOIN] | > 10000 nM
C/C(=C\c1csc(C)n1)[C@@H]1C[C@@H]2O[C@]2(C)CCC[C@H](C)[C@H](O)[C@@H](C)C(=O)C(C)(C)[C@@H](O)CC(=O)O1 [PATUPILONE] | < 0.125 nM
NC1(c2ccc(-c3nc4ccn5c(=O)[nH]nc5c4cc3-c3ccccc3)cc2)CCC1 [MK-2206] | > 4000 nM
CC1(C)CCC(c2ccc(Cl)cc2)=C(CN2CCN(c3ccc(C(=O)NS(=O)(=O)c4ccc(N[C@H](CCN5CCOCC5)CSc5ccccc5)c(S(=O)(=O)C(F)(F)F)c4)cc3)CC2)C1 [NAVITOCLAX] | > 2000 nM
O=C1NC(=O)c2c1c(-c1ccccc1Cl)cc1[nH]c3ccc(O)cc3c21 | > 2000 nM

====

# System: MZ1-PC;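 note: cell viability assay measuring growth inhibition of human MZ1-PC cells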
# EXPERIMENTAL PROTOCOL: cells
# Format: functional, cell-based, Homo sapiens
# RECORDED CONDITIONS: Homo sapiens, MZ1-PC
# Description: SANGER: Inhibition of human MZ1-PC cell growth in a cell viability assay.
pIC50: −log10 of the molar value.

SMILES STRING | ASSAY TARGET | pIC50
NC(=O)c1cccc(-c2cc(Nc3ccc(OC(F)(F)F)cc3)ncn2)c1 | MZ1-PC | < 5.89
COC(=O)[C@H](CCSC)NC(=O)c1ccc(NC[C@@H](N)CS)cc1-c1ccccc1 | MZ1-PC | < 5.99
COc1ccc(N(C(=O)Oc2c(C)cccc2C)c2ccnc(Nc3ccc(N4CCN(C)CC4)cc3)n2)c(OC)c1 | MZ1-PC | 6.64

====

# Tested on: LOX IMVI
# EXPERIMENTAL PROTOCOL: cells
# Format: functional, cell-based, Homo sapiens
# RECORDED CONDITIONS: Homo sapiens, LOX IMVI
# Description: SANGER: Inhibition of human LOXIMVI cell growth in a cell viability assay.
ATTRIBUTE MEASURED: IC50

SMILES STRING | EXPERIMENTAL VALUE
Cc1ccc(C(=O)Nc2ccc(CN3CCN(C)CC3)c(C(F)(F)F)c2)cc1C#Cc1cnc2cccnn12 | > 0.512 µM
C[C@@H](Oc1cc(-c2cnn(C3CCNCC3)c2)cnc1N)c1c(Cl)ccc(F)c1Cl | > 2 µM
NC1(c2ccc(-c3nc4ccn5c(=O)[nH]nc5c4cc3-c3ccccc3)cc2)CCC1 | > 4 µM
CN(C)CCOc1ccc(-c2nc(-c3ccncc3)c(-c3ccc4c(c3)CC/C4=N\O)[nH]2)cc1 | 3.19 µM

====

# System: NCI-H358
# EXPERIMENTAL PROTOCOL: cells
# Format: functional, cell-based
# RECORDED CONDITIONS: Homo sapiens
# Description: SANGER: Inhibition of human NCI-H358 cell growth in a cell viability assay.

SMILES STRING | ASSAY TARGET | IC50
CN(NC(=O)CC(=O)NN(C)C(=S)c1ccccc1)C(=S)c1ccccc1 | NCI-H358 | 0.0136 µM
O=C(NCCCNc1nc(Nc2cccc(NC(=O)N3CCCC3)c2)ncc1I)c1cccs1 | NCI-H358 | > 5 µM
Cc1ccc(-n2nc(C(C)(C)C)cc2NC(=O)Nc2ccc(OCCN3CCOCC3)c3ccccc23)cc1 | NCI-H358 | 7.54 µM
NC(=O)Nc1cc(-c2cccc(F)c2)sc1C(=O)N[C@H]1CCCNC1 | NCI-H358 | 1.43 µM
CCCCCCCCCCCC1=C(O)C(=O)C=C(O)C1=O | NCI-H358 | 11.1 µM
OC[C@H](Cc1ccccc1)Nc1nc(Oc2ccc3c(c2)CCC3)nc2c1ncn2Cc1ccc(-c2ccccc2)cc1 | NCI-H358 | > 10.2 µM
Cc1ccc(C(=O)Nc2ccc(CN3CCN(C)CC3)c(C(F)(F)F)c2)cc1C#Cc1cnc2cccnn12 | NCI-H358 | > 0.512 µM
CS(=O)(=O)N1CCN(Cc2cc3nc(-c4cccc5[nH]ncc45)nc(N4CCOCC4)c3s2)CC1 | NCI-H358 | > 4 µM

====

# Tested on: KP-N-RT-BM-1
# EXPERIMENTAL PROTOCOL: SANGER: Inhibition of human KP-N-RT-BM-1 cell growth in a cell viability assay.
# Type: functional, cell-based
ATTRIBUTE MEASURED: IC50

MOLECULE | ASSAY TARGET | EXPERIMENTAL VALUE
NC(=O)c1cccc(-c2cc(Nc3ccc(OC(F)(F)F)cc3)ncn2)c1 | KP-N-RT-BM-1 | > 1280 nM
Cc1ccc(NC(=O)c2ccc(CN3CCN(C)CC3)cc2)cc1Nc1nccc(-c2cccnc2)n1 [IMATINIB] | KP-N-RT-BM-1 | > 2000 nM
Cc1cc(N2CCOCC2)cc2[nH]c(-c3c(NC[C@@H](O)c4cccc(Cl)c4)cc[nH]c3=O)nc12 | KP-N-RT-BM-1 | 1440 nM
COc1ccc(N(C(=O)Oc2c(C)cccc2C)c2ccnc(Nc3ccc(N4CCN(C)CC4)cc3)n2)c(OC)c1 | KP-N-RT-BM-1 | > 5120 nM
C=CC(=O)N1CCCC(Nc2nc(Nc3ccc(N(C)C(=O)CC)cc3)nc3[nH]cnc23)C1 (stereo not given) | KP-N-RT-BM-1 | > 10200 nM
